# assay explanation: Inhibition of HCV 1b BK NS5B polymerase after 3 hrs by [3H]UTP incorporation assay
# Parameters: species or system Hepatitis C virus (isolate BK)
value type: log10 IC50 (log10 of the value in nM)

chem smiles	log10 IC50
CN(C)C(=O)C1=C/C(=C2\C(=O)c3ccccc3[C@@](C)(CCC(C)(C)C)C2=O)Nc2ccc(NS(C)(=O)=O)cc21	2.38
CC(C)(C)CC[C@@]1(C)C(=O)C(C2=NS(=O)(=O)c3cc(NS(C)(=O)=O)ccc3N2)=C(O)c2ccccc21	0.85
CNC(=O)C1=C/C(=C2\C(=O)c3ccccc3[C@@](C)(CCC(C)(C)C)C2=O)Nc2ccc(NS(C)(=O)=O)cc21	2.52
CC(C)(C)CC[C@@]1(C)C(=O)C(C2=NCc3cc(NS(C)(=O)=O)ccc3N2)=C(O)c2ccccc21	3.62
CC(C)(C)CC[C@@]1(C)C(=O)/C(=C2/C=Cc3ccccc3N2)C(=O)c2ccccc21	3.74
CC1=C/C(=C2\C(=O)c3ccccc3[C@@](C)(CCC(C)(C)C)C2=O)Nc2ccc(NS(C)(=O)=O)cc21	1.72
CC(C)(C)CC[C@@]1(C)C(=O)/C(=C2/C=C(C=O)c3cc(NS(C)(=O)=O)ccc3N2)C(=O)c2ccccc21	1.40
CC(C)(C)CC[C@@]1(C)C(=O)/C(=C2/C=C(CO)c3cc(NS(C)(=O)=O)ccc3N2)C(=O)c2ccccc21	1.75
CC(C)(C)CC[C@@]1(C)C(=O)/C(=C2/C=C(C(=O)O)c3cc(NS(C)(=O)=O)ccc3N2)C(=O)c2ccccc21	0.70
CC(C)(C)CC[C@@]1(C)C(=O)/C(=C2/C=Cc3cc(NS(C)(=O)=O)ccc3N2)C(=O)c2ccccc21	1.46
CC(C)CCC1=C/C(=C2\C(=O)c3ccccc3[C@@](C)(CCC(C)(C)C)C2=O)Nc2ccc(NS(C)(=O)=O)cc21	3.01
CCOC(=O)C1=C/C(=C2\C(=O)c3ccccc3[C@@](C)(CCC(C)(C)C)C2=O)Nc2ccc(NS(C)(=O)=O)cc21	2.87

----------
# assay explanation: Inhibition of HCV 1a H77 NS5B polymerase after 3 hrs by [3H]UTP incorporation assay
# Parameters: species or system Hepatitis C virus (isolate H77)
Heads up, the class ranges for IC50 are low bin = under 20 nM, mid bin = from 20 nM up to 300 nM, high bin = 300 nM and over

chem smiles	class assignment
CC(C)CCC1=C/C(=C2\C(=O)c3ccccc3[C@@](C)(CCC(C)(C)C)C2=O)Nc2ccc(NS(C)(=O)=O)cc21	high bin
CNC(=O)C1=C/C(=C2\C(=O)c3ccccc3[C@@](C)(CCC(C)(C)C)C2=O)Nc2ccc(NS(C)(=O)=O)cc21	mid bin
CC(C)(C)CC[C@@]1(C)C(=O)/C(=C2/C=Cc3cc(NS(C)(=O)=O)ccc3N2)C(=O)c2ccccc21	low bin
CC(C)(C)CC[C@@]1(C)C(=O)C(C2=NCc3cc(NS(C)(=O)=O)ccc3N2)=C(O)c2ccccc21	high bin
CC(C)(C)CC[C@@]1(C)C(=O)/C(=C2/C=C(C(=O)O)c3cc(NS(C)(=O)=O)ccc3N2)C(=O)c2ccccc21	low bin
CC(C)(C)CC[C@@]1(C)C(=O)C(C2=NS(=O)(=O)c3cc(NS(C)(=O)=O)ccc3N2)=C(O)c2ccccc21	low bin
CC(C)(C)CC[C@@]1(C)C(=O)/C(=C2/C=Cc3ccccc3N2)C(=O)c2ccccc21	high bin
CN(C)C(=O)C1=C/C(=C2\C(=O)c3ccccc3[C@@](C)(CCC(C)(C)C)C2=O)Nc2ccc(NS(C)(=O)=O)cc21	mid bin
CC(C)(C)CC[C@@]1(C)C(=O)/C(=C2/C=C(CO)c3cc(NS(C)(=O)=O)ccc3N2)C(=O)c2ccccc21	low bin
CC(C)(C)CC[C@@]1(C)C(=O)/C(=C2/C=C(C=O)c3cc(NS(C)(=O)=O)ccc3N2)C(=O)c2ccccc21	low bin
CCOC(=O)C1=C/C(=C2\C(=O)c3ccccc3[C@@](C)(CCC(C)(C)C)C2=O)Nc2ccc(NS(C)(=O)=O)cc21	high bin
CC1=C/C(=C2\C(=O)c3ccccc3[C@@](C)(CCC(C)(C)C)C2=O)Nc2ccc(NS(C)(=O)=O)cc21	mid bin
